Recorded log10 IC50 by entry
# target desc: Human T-type calcium channel (Cav 3.2) (Homo sapiens, UniProt O95180)
# Construct: Edward Perez-Reyes, University of Virginia, USA
# Sequence (O95180 whole entry): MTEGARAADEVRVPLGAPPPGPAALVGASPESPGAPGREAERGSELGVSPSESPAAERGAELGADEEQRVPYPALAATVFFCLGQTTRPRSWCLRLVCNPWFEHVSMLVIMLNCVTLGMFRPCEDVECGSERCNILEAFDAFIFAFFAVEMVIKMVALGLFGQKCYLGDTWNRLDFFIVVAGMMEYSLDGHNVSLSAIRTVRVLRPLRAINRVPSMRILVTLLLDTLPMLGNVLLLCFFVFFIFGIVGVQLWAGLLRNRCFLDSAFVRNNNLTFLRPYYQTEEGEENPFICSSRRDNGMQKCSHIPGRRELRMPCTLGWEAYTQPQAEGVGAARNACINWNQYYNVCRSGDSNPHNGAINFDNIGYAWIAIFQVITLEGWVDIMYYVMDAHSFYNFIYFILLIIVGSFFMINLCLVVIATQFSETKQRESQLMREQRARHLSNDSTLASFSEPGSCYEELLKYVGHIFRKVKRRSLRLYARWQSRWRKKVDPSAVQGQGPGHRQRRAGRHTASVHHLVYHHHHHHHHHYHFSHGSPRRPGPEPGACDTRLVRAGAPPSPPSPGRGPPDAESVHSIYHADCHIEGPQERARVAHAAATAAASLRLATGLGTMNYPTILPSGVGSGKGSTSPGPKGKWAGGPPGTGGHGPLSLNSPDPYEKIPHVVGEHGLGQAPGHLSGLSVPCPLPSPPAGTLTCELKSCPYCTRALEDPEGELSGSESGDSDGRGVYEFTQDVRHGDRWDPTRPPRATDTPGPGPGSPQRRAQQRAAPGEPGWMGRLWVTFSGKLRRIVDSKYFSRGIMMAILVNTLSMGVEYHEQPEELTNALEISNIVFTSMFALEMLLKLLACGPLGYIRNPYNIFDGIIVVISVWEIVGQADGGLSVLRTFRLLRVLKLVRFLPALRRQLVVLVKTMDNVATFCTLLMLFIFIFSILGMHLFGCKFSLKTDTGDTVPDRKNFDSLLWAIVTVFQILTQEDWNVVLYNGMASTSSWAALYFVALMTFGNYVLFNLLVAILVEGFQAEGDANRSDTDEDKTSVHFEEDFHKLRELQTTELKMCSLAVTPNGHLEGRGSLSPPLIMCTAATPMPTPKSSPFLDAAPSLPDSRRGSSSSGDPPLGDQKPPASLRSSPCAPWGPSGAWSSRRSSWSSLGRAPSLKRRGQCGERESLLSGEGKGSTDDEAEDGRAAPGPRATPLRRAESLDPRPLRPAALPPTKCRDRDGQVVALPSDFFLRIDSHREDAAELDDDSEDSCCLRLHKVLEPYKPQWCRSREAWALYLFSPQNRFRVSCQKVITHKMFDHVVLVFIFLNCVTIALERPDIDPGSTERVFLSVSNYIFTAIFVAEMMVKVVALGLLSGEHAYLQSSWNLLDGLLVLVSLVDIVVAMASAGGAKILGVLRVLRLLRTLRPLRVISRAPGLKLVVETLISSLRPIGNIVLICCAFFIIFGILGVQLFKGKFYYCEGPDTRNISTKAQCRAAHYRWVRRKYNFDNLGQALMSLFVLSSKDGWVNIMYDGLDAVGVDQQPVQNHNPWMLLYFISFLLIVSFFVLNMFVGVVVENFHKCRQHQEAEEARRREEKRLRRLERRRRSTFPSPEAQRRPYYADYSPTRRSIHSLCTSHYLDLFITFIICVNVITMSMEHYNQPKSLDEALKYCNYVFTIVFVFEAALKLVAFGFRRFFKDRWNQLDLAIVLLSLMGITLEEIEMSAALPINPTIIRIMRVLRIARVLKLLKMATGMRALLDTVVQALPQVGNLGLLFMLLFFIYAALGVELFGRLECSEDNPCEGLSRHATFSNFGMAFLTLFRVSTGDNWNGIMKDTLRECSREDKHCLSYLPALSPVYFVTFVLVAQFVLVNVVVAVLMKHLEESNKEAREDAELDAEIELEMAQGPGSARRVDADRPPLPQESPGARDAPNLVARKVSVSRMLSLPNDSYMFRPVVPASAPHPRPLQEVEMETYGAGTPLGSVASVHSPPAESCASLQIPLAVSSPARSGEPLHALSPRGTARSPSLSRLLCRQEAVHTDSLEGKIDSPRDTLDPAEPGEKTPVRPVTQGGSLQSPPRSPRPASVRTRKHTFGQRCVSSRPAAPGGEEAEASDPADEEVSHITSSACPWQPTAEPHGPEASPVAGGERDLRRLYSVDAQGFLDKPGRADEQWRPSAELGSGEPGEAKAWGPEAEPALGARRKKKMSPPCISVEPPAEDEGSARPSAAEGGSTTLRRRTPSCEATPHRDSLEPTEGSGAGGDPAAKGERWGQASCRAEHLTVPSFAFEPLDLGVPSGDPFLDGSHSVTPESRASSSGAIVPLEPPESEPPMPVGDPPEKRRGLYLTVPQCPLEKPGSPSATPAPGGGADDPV
# protocol description: Calcium Influx Inhibition Assay
# experimental setup: Human T-type calcium channel (Cav 3.2) expressing HEK293 cells, FLIPR Calcium 4 fluorescence
The base-10 logarithm of IC50, taken with IC50 in nM, is what appears here.

molecule	measured endpoint	number
O=c1nc(Nc2ccn(-c3ccc(F)cc3)c2)ncn1Cc1ccc(Cl)cc1	log10 IC50	2.30
COc1nc(C2=CCN(c3nc(C)n(Cc4ccc(Br)s4)c(=O)n3)C[C@@H]2O)ccc1Cl	log10 IC50	0.23
Cc1nc(N2CCN(c3ccc(F)cc3)CC2)nc(=O)n1Cc1ccc(C(F)(F)F)s1	log10 IC50	1.08
COc1nc(N2CCN(c3ccc(F)cc3)CC2)nc(=O)n1Cc1ccc(Cl)cc1	log10 IC50	2.36
O=c1nc(N2CC=C(c3ccc(F)cc3)C(O)C2)ncn1Cc1ccc(C(F)(F)F)s1 (stereo not shown)	log10 IC50	0.52
O=c1nc(N2CC=C(c3cc(F)cc(F)c3)CC2)ncn1Cc1ccc(C(F)(F)F)s1	log10 IC50	1.75
Cc1nc(N2CC3CCC(C2)N3c2ccc(F)cc2)nc(=O)n1Cc1ccc(C(F)(F)F)s1	log10 IC50	2.49
CN(C)C1CN(c2ncn(Cc3ccc(C(F)(F)F)s3)c(=O)n2)CC=C1c1ccc(F)cc1 (stereo not shown)	log10 IC50	2.67
CC(C)(C)c1cc(Cn2cnc(N3CCN(c4ccc(F)cc4)CC3)nc2=O)[nH]n1	log10 IC50	2.45
N#Cc1ccc(N2CCN(c3ncn(Cn4ccc(C(F)(F)F)n4)c(=O)n3)CC2)cc1	log10 IC50	2.93

Prompt: // query log10 IC50 value for entry O=c1nc(N2CC=C(c3ccc(F)cc3)C(O)C2)ncn1Cc1ccc2c(c1)CC(C(F)(F)F)O2 (stereo not shown)
Completion: 0.56

Prompt: Return reported log10 IC50; argument: "Cc1ccccc1N1CCN(c2ncn(Cn3ccc(C(F)(F)F)n3)c(=O)n2)CC1"
Completion: 2.90

###

# target desc: Human T-type calcium channel (Cav 3.2) (Homo sapiens, UniProt O95180)
# Construct: Edward Perez-Reyes, University of Virginia, USA
# protocol description: Calcium Influx Inhibition Assay
# experimental setup: Human T-type calcium channel (Cav 3.2) expressing HEK293 cells, FLIPR Calcium 4 fluorescence
# Description: 1. Calcium Influx Inhibition Assay Human T-type calcium channel (Cav 3.2) expressing HEK293 cells were obtained from Prof. Edward Perez-Reyes, University of Virginia, USA. The calcium-sensitive fluorescent dye used was FLIPR Calcium 4 Assay Kit (Molecular Devices). […] While fluorescence was continuously analyzed from the bottom with a FlexStation 3 (Molecular Devices), a calcium solution was added. […] From the rise in the fluorescence from the base line, the inhibition percentage was calculated. […]
pIC50: −log10 of the molar value.
Quick rule for you: pIC50 at 7 or higher means 1, lower means -1.

Previously resolved entries follow.
compound	target desc	class name
Cc1nc(N2CC=C(c3ccc(F)cc3)C3(COCOC3)C2)nc(=O)n1Cc1ccc(C(F)(F)F)s1 [compound 486]	Human T-type calcium channel (Cav 3.2) (Homo sapiens, UniProt O95180)	-1
O=c1nc(N[C@@H]2CCO[C@H](c3ccc(F)cc3)C2)ncn1Cc1ccc(C(F)(F)F)s1 (racemic) [compound 307]	Human T-type calcium channel (Cav 3.2) (Homo sapiens, UniProt O95180)	-1
O=c1nc(NC2CCC(c3ccc(F)cc3)C2)ncn1Cc1ccc(Cl)cc1 (centres unmarked) [compound 85]	Human T-type calcium channel (Cav 3.2) (Homo sapiens, UniProt O95180)	1
O=c1nc(N2CC=C(c3ccc(F)cc3)CC2)ncn1Cc1ccc(OCC(F)(F)F)nn1 [compound 162]	Human T-type calcium channel (Cav 3.2) (Homo sapiens, UniProt O95180)	-1
Cc1nc(N2CCC3(CCN(c4ccc(F)cc4)C3)CC2)nc(=O)n1Cc1ccc(C(F)(F)F)s1 [compound 370]	Human T-type calcium channel (Cav 3.2) (Homo sapiens, UniProt O95180)	-1
O=c1nc(N[C@@H]2CCN(c3ccc(F)cc3)C2)ncn1Cc1ccc(C(F)(F)F)s1 [compound 224]	Human T-type calcium channel (Cav 3.2) (Homo sapiens, UniProt O95180)	1
Cc1nc(N2CC=C(c3ccc(F)cc3)[C@@H](O)C2)nc(=O)n1Cc1ccc(C(F)(F)F)s1 [compound 342]	Human T-type calcium channel (Cav 3.2) (Homo sapiens, UniProt O95180)	1

Continue with the compound presented below.
Prompt: Please indicate if the recorded pIC50 for O=c1nc(N2CC=C(c3ccsc3)CC2)ncn1Cc1ccc(C(F)(F)F)s1 [compound 230] meets or exceeds 7.
Completion: 1

###

# target desc: Human T-type calcium channel (Cav 3.2) (Homo sapiens)
# Construct: Edward Perez-Reyes, University of Virginia, USA
# protocol description: Calcium Influx Inhibition Assay
# experimental setup: Human T-type calcium channel (Cav 3.2) expressing HEK293 cells, FLIPR Calcium 4 fluorescence
pIC50: −log10 of the molar value.
Rule: yes for pIC50 not less than 7, no for anything less.

compound	class name
O=c1nc(N2CC=C(c3ccc(F)cc3)C(O)C2)ncn1Cn1ccc(C(F)(F)F)n1 (stereo not shown)	yes
Cc1cc(C2=CCN(c3ncn(Cc4ccc(C(F)(F)F)s4)c(=O)n3)C[C@@H]2O)cs1	yes
O=c1nc(N2CCC(c3ccc(F)cc3)C(F)(F)C2)ncn1Cc1ccc(Cl)cc1 (stereo not shown) [466b]	no
Cc1ccc(C2=CCN(c3nc(C)n(Cc4ccc(Br)s4)c(=O)n3)C[C@@H]2O)cc1F	yes
CS(=O)(=O)NC1CN(c2ncn(Cc3ccc(C(F)(F)F)s3)c(=O)n2)CC=C1c1ccc(F)cc1 (stereo not shown)	yes

Prompt: Quick check, pIC50 >= 7? "Cc1nc(N2CC=C(c3ccc(F)cc3)[C@@H](O)C2)nc(=O)n1Cc1ccc(C(F)(F)C(F)(F)F)s1"
Completion: yes

Prompt: Identify whether the reported pIC50 of the following compound is 7 or greater: "O=c1nc(NC[C@H]2CCCN2c2ccc(F)cc2)ncn1Cc1ccc(Cl)cc1"
Completion: yes

Prompt: Tell me whether pIC50 is at least 7 here: "Cc1nc(N2CCN(c3ccccc3)CC(F)(F)C2)nc(=O)n1Cc1ccc(C(F)(F)F)s1"
Completion: no

Prompt: Is the recorded value of pIC50 equal to or greater than 7 for this compound? "Cc1nc(N2CC=C(c3ccc(F)cc3)[C@@H](O)C2)nc(=O)n1Cc1ccc(Cl)s1"
Completion: yes

Prompt: Please tell me: is the compound "Cc1nc(N2CC=C(c3ccc(F)c(Cl)c3)[C@@H](O)C2)nc(=O)n1Cc1ccc(C(F)(F)F)s1" at or over 7 in terms of pIC50?
Completion: yes

Prompt: Has "Cc1cc(F)ccc1C1=CCN(c2nc(C)n(Cc3ccc(C(C)(C)C)s3)c(=O)n2)C[C@@H]1O" a recorded pIC50 greater than or equal to 7?
Completion: yes

Prompt: Hello, I need to know if "O=c1nc(N2CC=C(c3ccc(F)c(Cl)c3)[C@@H](O)C2)ncn1Cc1cc2c(s1)CCCC2" has measured pIC50 not below 7. Thanks!
Completion: yes

Prompt: Is reported pIC50 greater than or equal to 7 here: "O=c1nc(N2C=CC(c3ccc(F)cc3)=CC2)ncn1Cc1ccc(C(F)(F)F)s1"
Completion: no

###

Recorded IC50, one value per entry.
# target desc: Human T-type calcium channel (Cav 3.2) (Homo sapiens)
# Construct: Edward Perez-Reyes, University of Virginia, USA
# protocol description: Calcium Influx Inhibition Assay
# experimental setup: Human T-type calcium channel (Cav 3.2) expressing HEK293 cells, FLIPR Calcium 4 fluorescence
Give the number; nM is assumed, so skip it.

molecule	unit descriptor	IC50
O=c1nc(N2CC=C(c3ccc4ocnc4c3)CC2)ncn1Cc1ccc(C(F)(F)F)s1 [compound 295]	nM	180
O=c1nc(N2CCN(c3ccc(F)cc3)CC2)ncn1Cc1ccc(OC(F)(F)F)cc1 [compound 6]	nM	19
COc1ccc(C2=CCN(c3ncn(Cc4ccc(C(F)(F)F)s4)c(=O)n3)CC2)s1 [compound 300]	nM	160
O=c1nc(N2CC=C(c3cnn(CC(F)(F)F)c3)CC2)ncn1Cc1ccc(C(F)(F)F)s1 [compound 259]	nM	600
O=c1nc(N2CC=C(c3ccc(F)cc3)C(O)C2)ncn1Cc1ccc(C2CCCO2)s1 (stereo not shown) [compound 196]	nM	20

Switching to the query record.
Prompt: Name the reported IC50 value associated with the molecule O=c1nc(N2CC=C(c3ccc(F)cc3)[C@@H](O)C2)ncn1Cc1ccc(OS(=O)(=O)C(F)(F)F)cc1 [compound 211]
Completion: 2

###

# target desc: Human T-type calcium channel (Cav 3.2) (Homo sapiens, UniProt O95180)
# Construct: Edward Perez-Reyes, University of Virginia, USA
# protocol description: Calcium Influx Inhibition Assay
# experimental setup: Human T-type calcium channel (Cav 3.2) expressing HEK293 cells, FLIPR Calcium 4 fluorescence
measured endpoint: IC50 (nM)
Give a bare numeral; the unit nM is implied.

Consider the worked cases shown below.
molecule	measured endpoint	unit descriptor	number
CC(=O)NC1CN(c2ncn(Cc3ccc(C(F)(F)F)s3)c(=O)n2)CC=C1c1ccc(F)cc1 (centres unmarked) [compound 317]	IC50	nM	56
O=C1CCc2cc(C3=CCN(c4ncn(Cc5ccc(C(F)(F)F)s5)c(=O)n4)CC3)ccc21 [compound 269]	IC50	nM	75
O=c1nc(N2CCN(c3ccc(F)cc3)CC2)ncn1Cn1ccc(C2CCCCC2)n1 [compound 27]	IC50	nM	150
O=c1nc(N2CC=C(c3ccccc3)CC2)ncn1Cc1ccc(C(F)(F)F)s1 [compound 70]	IC50	nM	19
O=c1nc(N2CCN(c3ccc(F)cc3)CC2)ncn1Cc1cccc(C(F)(F)F)c1 [compound 8]	IC50	nM	140
CC(C)(C)c1ccc(Cn2cnc(N3CCN(c4ccc(F)cc4)CC3)nc2=O)cc1 [compound 5]	IC50	nM	56
Cc1cccc(N2CCN(c3ncn(Cn4ccc(C(F)(F)F)n4)c(=O)n3)CC2)c1 [compound 39]	IC50	nM	210

Shifting focus to the molecule that follows.
Prompt: Quick check: IC50 of CC1CC(F)(c2ccc(F)cc2)CCN1c1ncn(Cc2ccc(Cl)cc2)c(=O)n1 (centres unmarked) [compound 134] ?
Completion: 320
